Molecular target: human Siglec-8 (full-length, on transfected CHO or 293 cells, or native on human eosinophils) (human, UniProt Q9NYZ4 17-499)
Sequence (Q9NYZ4 17-499): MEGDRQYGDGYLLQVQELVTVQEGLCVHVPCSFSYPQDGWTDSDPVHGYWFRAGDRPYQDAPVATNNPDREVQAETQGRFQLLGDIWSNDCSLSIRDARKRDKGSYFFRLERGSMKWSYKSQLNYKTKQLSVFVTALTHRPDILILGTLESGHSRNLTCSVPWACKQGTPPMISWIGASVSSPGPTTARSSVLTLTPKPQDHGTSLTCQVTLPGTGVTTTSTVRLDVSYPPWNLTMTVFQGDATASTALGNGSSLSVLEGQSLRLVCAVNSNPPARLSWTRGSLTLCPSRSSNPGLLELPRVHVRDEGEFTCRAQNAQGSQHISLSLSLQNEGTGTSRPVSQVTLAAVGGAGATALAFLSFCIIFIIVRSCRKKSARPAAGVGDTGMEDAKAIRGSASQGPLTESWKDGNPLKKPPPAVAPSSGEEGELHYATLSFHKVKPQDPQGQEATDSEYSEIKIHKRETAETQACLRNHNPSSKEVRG
Assay: flow cytometry on CHO cells transiently transfected with full-length human Siglec-8; A647 anti-human Fc-gamma secondary; Mean RL1-H
Provide the recorded EC50 (read off the curve) for the entries that follow.

Quick one: EC50 (read off the curve) of anti-Siglec8-G2-xELL, bivalent VHH-hIgG1-xELL-Fc (Fc fusion, Homodimer through the Fc; also called cx10382) QVTLKESGGGLVRTGGSLRLSCAASGSISIFSMYVVAWYRQAPGKQREWVAFIQRGGTANYADSAKGRFTISRDNAKNTVYLQMASLKPDDTAVYYCNYINSDNEIGGPWGQGTQVTVKPGGGGDKTHTCPPCPAPGGPSVFLFPPKPKDTLMISRTPEVTCVVVDVSHEDPEVKFNWYVDGVEVHNAKTKPREEQYNSTYRVVSVLTVLHQDWLNGKEYKCKVSNKALPAPIEKTISKAKGQPREPQVYTLPPSRDELTKNQVSLTCLVKGFYPSDIAVEWESNGQPENNYKTTPPVLDSDGSFFLYSKLTVDKSRWQQGNVFSCSVMHEALHNHYTQKSLSLSPGK ?
~0.3 nM

Entry anti-Siglec8-B12-xELL, bivalent VHH-hIgG1-xELL-Fc (Fc fusion, Homodimer through the Fc; also called cx8982; Bi-B12) QVQVVESGGGLVQPGGSLRLSCAASGSTSLLNAMAWYRQAPGKERELVAAISSGGGTYYADSVKGRFTISTNNAKNTLYLQMNSLKPEDTAMYYCAPGPNYSDYEEINWGQGTQVTVKPGGGGDKTHTCPPCPAPGGPSVFLFPPKPKDTLMISRTPEVTCVVVDVSHEDPEVKFNWYVDGVEVHNAKTKPREEQYNSTYRVVSVLTVLHQDWLNGKEYKCKVSNKALPAPIEKTISKAKGQPREPQVYTLPPSRDELTKNQVSLTCLVKGFYPSDIAVEWESNGQPENNYKTTPPVLDSDGSFFLYSKLTVDKSRWQQGNVFSCSVMHEALHNHYTQKSLSLSPGK please
~0.4 nM

Entry anti-Siglec8-D1-xELL, bivalent VHH-hIgG1-xELL-Fc (Fc fusion, Homodimer through the Fc; also called cx8983; Bi-D1) QVQLVESGGGLVQPGGSLRLSCAASGSIASIHGMGWYRQAPGKERELVAAIAGEGSTYYADSVKGRFTISRDFAKNTLYLQMNNLKAEDTAMYYCANNDERDDYWGQGTQVTVKPGGGGDKTHTCPPCPAPGGPSVFLFPPKPKDTLMISRTPEVTCVVVDVSHEDPEVKFNWYVDGVEVHNAKTKPREEQYNSTYRVVSVLTVLHQDWLNGKEYKCKVSNKALPAPIEKTISKAKGQPREPQVYTLPPSRDELTKNQVSLTCLVKGFYPSDIAVEWESNGQPENNYKTTPPVLDSDGSFFLYSKLTVDKSRWQQGNVFSCSVMHEALHNHYTQKSLSLSPGK please
~0.5 nM

Entry anti-Siglec8-E2-xELL, bivalent VHH-hIgG1-xELL-Fc (Fc fusion, Homodimer through the Fc; also called cx8984; Bi-E2) QVQLVESGGGLVQPGGSLRLSCATSGIIFTSNVINWYRQAPGKQREFVAFITSITSGQSTMYADAVKGRFTVSRDNDKNIGYLQMTSLQPEDTARYVCNVGAYWGQGTQVTVKPGGGGDKTHTCPPCPAPGGPSVFLFPPKPKDTLMISRTPEVTCVVVDVSHEDPEVKFNWYVDGVEVHNAKTKPREEQYNSTYRVVSVLTVLHQDWLNGKEYKCKVSNKALPAPIEKTISKAKGQPREPQVYTLPPSRDELTKNQVSLTCLVKGFYPSDIAVEWESNGQPENNYKTTPPVLDSDGSFFLYSKLTVDKSRWQQGNVFSCSVMHEALHNHYTQKSLSLSPGK please
~0.4 nM
